Give IC50 for every item shown.
# experimental_target: HGFA (Homo sapiens)
# Construct: purchased R&D Systems 1514-SE-010
# Sequence (Q04756 408-655 limits assumed): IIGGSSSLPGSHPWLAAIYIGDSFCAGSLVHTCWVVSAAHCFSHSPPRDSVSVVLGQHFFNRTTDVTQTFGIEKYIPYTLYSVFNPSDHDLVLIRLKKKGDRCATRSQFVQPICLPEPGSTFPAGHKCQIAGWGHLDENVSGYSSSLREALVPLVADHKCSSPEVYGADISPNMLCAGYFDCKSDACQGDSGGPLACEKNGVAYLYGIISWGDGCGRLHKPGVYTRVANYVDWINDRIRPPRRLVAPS
# Sequence (Q04756 373-407 partner limits assumed): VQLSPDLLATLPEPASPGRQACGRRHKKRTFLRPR
# assay_procedure: Fluorogenic kinetic enzyme inhibitor assay, HGFA
# Assay type: biochemical
# applied_conditions: read-out: HGFA IC50
Your answer should be a plain number; it is taken to be in nM.

Problem: Which IC50 value belongs to CCC(C)[C@H](NC(C)=O)C(=O)N[C@H](Cc1cc2ccccc2[nH]1)C(=O)N[C@@H](Cc1ccccc1)C(=O)N[C@@H](CCCNC(=N)N)C(=O)c1nc2ccccc2s1 (some centres unmarked) ?
Solution: 66.2

Problem: Data request, read-out IC50, for `CC(=O)N[C@@H](Cc1c[nH]c2ccccc12)C(=O)N[C@@H](CC(C)C)C(=O)N[C@@H](CCCNC(=N)N)C(=O)c1nc2ccc(C(=O)O)cc2s1`
Solution: 98.3

Problem: Bench note: what IC50 did `CC(=O)N[C@@H](Cc1c[nH]c2ccccc12)C(=O)N[C@@H](CC(C)C)C(=O)N[C@@H](CCCNC(=N)N)C(=O)c1nc2ccccc2s1` show?
Solution: 76.3

Problem: Please give the measured IC50 for this compound: `N=C(N)NCCC[C@H](NC(=O)[C@H](Cc1ccccc1)NC(=O)[C@H](CCC(N)=O)NC(=O)Cc1ccccc1)C(=O)c1nc2ccccc2s1`
Solution: 75.2

Problem: Bench note: what IC50 did `CC(=O)N[C@@H](Cc1cncn1COCc1ccccc1)C(=O)N[C@@H](CCC(C)C)C(=O)N[C@@H](CCCNC(=N)N)C(=O)c1nc2ccccc2s1` show?
Solution: 131

###

The following are reported pIC50 results, target or system Thrombin (Homo sapiens, UniProt P00734).
pIC50: −log10 of the molar value.

Problem: Given the entry CC(=O)N[C@@H](CO)C(=O)N[C@@H](CCCCN)C(=O)N[C@@H](Cc1ccccc1)C(=O)N[C@@H](CCCNC(=N)N)C(=O)c1nccs1 [ZFH6095] , report its measured pIC50.
Solution: < 4.70

Problem: What value of pIC50 has been reported for the following compound? N=C(N)NCCC[C@H](NC(=O)[C@H](Cc1ccccc1)NC(=O)[C@H](CCC(N)=O)N1CCCCC1)C(=O)c1nc2ccccc2s1 [CA1046-2]
Solution: < 4.70

Problem: pIC50 lookup needed for CC(=O)N[C@@H](Cc1ccccc1)C(=O)N[C@@H](CC(C)C)C(=O)N[C@@H](Cc1ccccc1)C(=O)N[C@@H](CCCNC(=N)N)C(=O)c1nc2ccccc2s1 [ZFH7063] , thanks.
Solution: < 4.70

###

# experimental_target: TMPRSS2 (Homo sapiens)
# assay_procedure: Fluorogenic kinetic enzyme inhibitor assay, TMPRSS2
# Type: biochemical
# Set-up: purchased Cusabio Technology CSB-YP023924HU
# applied_conditions: read-out: TMPRSS2 IC50
measurement_type: pIC50
Value format note: pIC50 is -log10 of concentration (mol/L); just state the number.

Problem: Using the record for `N=C(N)NCCC[C@H](NC(=O)[C@H](Cc1ccccc1)NC(=O)[C@H](CCC(N)=O)NCCc1ccccc1)C(=O)c1nc2ccccc2s1` , report its pIC50.
Solution: 9.50

Problem: Fill blank: measured pIC50 of the compound `N=C(N)NCCC[C@H](NC(=O)[C@H](Cc1ccccc1)NC(=O)[C@H](CCC(N)=O)NCc1ccccc1)C(=O)c1nc2ccccc2s1` is ____.
Solution: 9.00

Problem: Fill in the blank: the reported pIC50 of `N=C(N)NCCC[C@H](NC(=O)[C@H](CCc1ccccc1)NC(=O)OCC1c2ccccc2-c2ccccc21)C(=O)c1nc2ccccc2s1` is ____.
Solution: 6.70

Problem: Return reported pIC50; argument: `N=C(N)NCCC[C@H](NC(=O)[C@H](Cc1csc2ccccc12)NC(=O)OCc1ccccc1)C(=O)c1nc2ccccc2s1`
Solution: 9.58

Problem: Any idea what its pIC50 is? The compound is `CC(=O)N[C@H](Cc1c[nH]c2ccccc12)C(=O)N[C@@H](CC(C)C)C(=O)N[C@@H](CCCNC(=N)N)C(=O)c1nc2ccccc2s1`
Solution: 10.59

Problem: Reported pIC50 for `CC(C)CC[C@H](NC(=O)OCC1c2ccccc2-c2ccccc21)C(=O)N[C@@H](CCCNC(=N)N)C(=O)c1nc2ccccc2s1` : what is it?
Solution: 6.34

Problem: What value of pIC50 has been recorded for this entry: C=CCOC(=O)CC[C@H](NC(=O)[C@@H]1CC2CCCCC2N1C(C)=O)C(=O)N[C@@H](Cc1ccc(F)cc1)C(=O)N[C@@H](CCCNC(=N)N)C(=O)c1nc2ccccc2s1 (stereo partly shown)
Solution: 10.08

Problem: Field request: pIC50 | item: `CC(=O)N[C@H](Cc1c[nH]c2ccccc12)C(=O)N[C@@H](Cc1ccccc1)C(=O)N[C@@H](CCCNC(=N)N)C(=O)c1nc2ccccc2s1`
Solution: 9.81

Problem: Query: pIC50; subject: `CC(=O)N[C@@H](CO)C(=O)N[C@@H](Cc1cncn1COCc1ccccc1)C(=O)N[C@@H](CC(C)C)C(=O)N[C@H](CCCNC(=N)N)C(=O)c1nc2ccccc2s1`
Solution: 6.99

Problem: Which pIC50 value belongs to `N=C(N)NCCC[C@H](NC(=O)[C@H](Cc1ccccc1)NC(=O)[C@H](CCC(N)=O)NS(=O)(=O)Cc1ccccc1)C(=O)c1nc2ccccc2s1` ?
Solution: 10.15

Problem: What value of measured pIC50 is listed for `N=C(N)NCCC[C@H](NC(=O)[C@H](Cc1ccccc1)NC(=O)[C@H](CCC(N)=O)NC(=O)c1ccccc1)C(=O)c1nc2ccccc2s1` ?
Solution: 10.09

Problem: So what's the measured pIC50 for this one? CC(=O)N[C@H]1Cc2ccc(cc2)OCCCC[C@@H](C(=O)N[C@@H](CCCNC(=N)N)C(=O)c2nc3ccccc3s2)NC(=O)[C@H](Cc2ccccc2)NC1=O [VD4111B]
Solution: 7.78

Problem: Quick one: pIC50 of `N=C(N)NCCC[C@H](NC(=O)[C@H](Cc1ccccc1)NC(=O)[C@H](CCC(N)=O)NS(=O)(=O)C1CC1)C(=O)c1nc2ccccc2s1` ?
Solution: 9.56

Problem: Consider the compound shown here: CCC(C)[C@H](NC(C)=O)C(=O)N[C@@H](CCC(N)=O)C(=O)N[C@H](C(=O)N[C@@H](CCCNC(=N)N)C(=O)c1nc2ccccc2s1)C(C)O (stereo partly shown) What is its recorded pIC50?
Solution: 9.76

Problem: Fill blank: measured pIC50 of the compound `CC(=O)N[C@@H](Cc1c[nH]c2ccccc12)C(=O)N[C@@H](CC(C)C)C(=O)N[C@@H](Cc1ccccc1)C(=O)N[C@@H](CCCNC(=N)N)C(=O)c1nc2ccccc2s1` is ____.
Solution: 10.04

Problem: Value lookup for pIC50; key = `CC(=O)N[C@H](Cc1c[nH]c2ccccc12)C(=O)N[C@@H](CC(C)C)C(=O)N[C@@H](CCCNC(=N)N)C(=O)c1nc2ccc(C(=O)O)cc2s1`
Solution: 8.72

###

Would you kindly list IC50 for each of these compounds?
# experimental_target: hepsin (Homo sapiens, UniProt P05981)
# Construct: purchased R&D Systems 4776-SE-010
# Sequence (P05981 163-417 limits assumed): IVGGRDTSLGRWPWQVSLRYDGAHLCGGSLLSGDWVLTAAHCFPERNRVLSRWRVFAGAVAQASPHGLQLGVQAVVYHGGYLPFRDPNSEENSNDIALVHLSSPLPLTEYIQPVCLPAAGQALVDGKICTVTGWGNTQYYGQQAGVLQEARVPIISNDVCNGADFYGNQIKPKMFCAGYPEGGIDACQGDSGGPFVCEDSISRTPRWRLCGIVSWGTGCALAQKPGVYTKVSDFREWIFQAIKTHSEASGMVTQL
# Sequence (P05981 1-162 partner limits assumed): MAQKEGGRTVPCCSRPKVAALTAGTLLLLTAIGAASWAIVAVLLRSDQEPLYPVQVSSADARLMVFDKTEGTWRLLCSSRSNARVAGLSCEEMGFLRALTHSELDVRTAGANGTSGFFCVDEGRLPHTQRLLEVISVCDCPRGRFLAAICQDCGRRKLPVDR
# assay_procedure: Fluorogenic kinetic enzyme inhibitor assay, hepsin
# Format: biochemical
# applied_conditions: read-out: Hepsin IC50
Numbered stars: 1 amine (or outer) side, 2 acyl side, 3 side chain; on linkers, the order of the positions; unused ones are H or OH. Square brackets hold non-standard residues; d marks the D form. Peptide text beside a SMILES is read from it. X1 = N=C(N)NCCC[C@H](N[*:1])C(=O)c1nc2ccc(C(=O)[*:2])cc2s1
Answer with a number only, understood to be in nM.

Problem: // lookup IC50 for CC(=O)N[C@@H](CO)C(=O)N[C@@H](CCCCN)C(=O)N[C@@H](CC(C)C)C(=O)N[C@@H](CCCNC(=N)N)C(=O)c1nc2ccc(C(=O)N[C@H](C(N)=O)C(C)C)cc2s1 [ZFH7116] (Ac-SKL[X1]V-NH2)
Solution: 1

Problem: Name the recorded IC50 for `CC(=O)N[C@@H](CCCCN)C(=O)N[C@@H](CCC(N)=O)C(=O)N[C@@H](Cc1ccccc1)C(=O)N[C@@H](CCCNC(=N)N)C(=O)c1nccs1` .
Solution: 1.2

Problem: GET /values?readout=IC50&item= `CC(=O)N[C@@H](Cc1c[nH]c2ccccc12)C(=O)N[C@@H](CC(C)C)C(=O)N[C@@H](CCCNC(=N)N)C(=O)c1nc2ccccc2s1`
Solution: 0.93

###

# experimental_target: TMPRSS2 (Homo sapiens, UniProt O15393)
# Sequence (O15393 106-492 limits assumed): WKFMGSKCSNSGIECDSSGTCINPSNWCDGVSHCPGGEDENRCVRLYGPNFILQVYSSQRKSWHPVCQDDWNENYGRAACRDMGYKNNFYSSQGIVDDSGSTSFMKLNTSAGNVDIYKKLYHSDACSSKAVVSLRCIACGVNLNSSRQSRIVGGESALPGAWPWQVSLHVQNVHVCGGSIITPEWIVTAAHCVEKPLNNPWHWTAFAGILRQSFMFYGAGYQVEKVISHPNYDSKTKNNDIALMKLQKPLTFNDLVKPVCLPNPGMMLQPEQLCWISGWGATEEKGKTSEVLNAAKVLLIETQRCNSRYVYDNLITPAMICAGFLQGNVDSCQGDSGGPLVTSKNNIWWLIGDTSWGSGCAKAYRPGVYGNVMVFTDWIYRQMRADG
# assay_procedure: Fluorogenic kinetic enzyme inhibitor assay, TMPRSS2
# Assay type: biochemical
# Parameters: purchased Cusabio Technology CSB-YP023924HU
# applied_conditions: read-out: TMPRSS2 IC50
Provide the recorded pIC50 for the entries that follow.
# pIC50: negative log10 of molar concentration; output just the value

Problem: // pIC50 lookup, key: `N=C(N)NCCC[C@@H](NC(=O)[C@H](Cc1ccccc1)NC(=O)[C@H](CCC(N)=O)NCCc1ccccc1)C(=O)c1nc2ccccc2s1`
Solution: 7.78

Problem: Report pIC50 for `CC(=O)N[C@@H](CO)C(=O)N[C@@H](CCCCN)C(=O)N[C@@H](Cc1ccccc1)C(=O)N[C@@H](CCCNC(=N)N)C(=O)c1nccs1` please.
Solution: 8.10

Problem: For the compound shown here, `CC(=O)N[C@@H](Cc1c[nH]c2ccccc12)C(=O)N[C@@H](CC(C)C)C(=O)N[C@@H](CCCNC(=N)N)C(=O)c1nc2ccc(C(=O)O)cc2s1` , give the reported pIC50.
Solution: 8.84

Problem: Recorded pIC50 for CCC(C)[C@H](NC(C)=O)C(=O)N[C@H](C(=O)N[C@@H](Cc1ccccc1)C(=O)N[C@@H](CCCNC(=N)N)C(=O)c1nc2ccccc2s1)C(C)O (stereo partly shown) , please?
Solution: 10.19

Problem: # query: pIC50 of entry `N=C(N)NCCC[C@H](NC(=O)[C@H](CC1CCCCC1)NC(=O)OCC1c2ccccc2-c2ccccc21)C(=O)c1nc2ccccc2s1`
Solution: 10.40

Problem: Which pIC50 is listed for CCC(C)[C@H](NC(C)=O)C(=O)N[C@@H](CCC(N)=O)C(=O)N[C@@H](CO)C(=O)N[C@@H](CCCNC(=N)N)C(=O)c1nc2ccccc2s1 (stereo partly shown) ?
Solution: 8.34

Problem: Quick one: pIC50 of `CC(=O)N[C@H]1C/C=C\COc2ccc(cc2)C[C@@H](C(=O)N[C@@H](CCCNC(=N)N)C(=O)c2nc3ccccc3s2)NC(=O)[C@H](CC(C)C)NC1=O` ?
Solution: 7.85
